// provenance: patent US20230167093A1

System: Target C CJ mRNA
Assay: Gene panel canonical junction qPCR assay, Target C
Format: cell-based
Conditions: protocol as above, concentration having 50% response in CJ decrease, read-out: Target C IC50 (decrease in CJ mRNA levels)
pIC50: −log10 of the molar value.
Here, each record is paired with measured pIC50 data.

{"Sample Smiles": "Cc1cc(-c2ccc3c(=O)[nH]c(N4CCN(C)CC4)nc3c2)cc2cn(C)nc12", "Test Result": "5.00 to 6.00"}
{"Sample Smiles": "CN1CCC(Nc2ccc3ncn(-c4ccc5nn(C)cc5c4)c(=O)c3c2)CC1", "Test Result": "< 5.00"}
{"Sample Smiles": "Cc1cc(-c2nc3cc(N4CCN(C)CC4)ccc3c(=O)[nH]2)cc2cn(C)nc12", "Test Result": "< 5.00"}
{"Sample Smiles": "CN1CCN(c2ccc3ncn(-c4cc(F)c5nn(C)cc5c4)c(=O)c3c2)CC1", "Test Result": "5.00 to 6.00"}
{"Sample Smiles": "Cc1cn2cc(-n3cnc4ccc(N5CCNCC5)cc4c3=O)cc(F)c2n1", "Test Result": "< 5.00"}

Which pIC50 value belongs to Cc1cc(-c2ccc3ncn(C4CCN(C)CC4)c(=O)c3c2)cc2cn(C)nc12 ? < 5.00

Return reported pIC50; argument: Cc1cn2nc(-n3cnc4ccc(N5CCN(C)CC5)cc4c3=O)cc(C)c2n1 5.00 to 6.00

Looking for the measured pIC50 of CN1[C@H]2CC[C@@H]1C=C(c1ccc3ncn(-c4ccc5nn(C)cc5c4)c(=O)c3c1)C2 , can you help? < 5.00
